Data origin, for the record: patent US9062026B2

TARGET_ENTITY: p97 (Homo sapiens (Human), UniProt P55072)
Sequence (P55072 whole entry): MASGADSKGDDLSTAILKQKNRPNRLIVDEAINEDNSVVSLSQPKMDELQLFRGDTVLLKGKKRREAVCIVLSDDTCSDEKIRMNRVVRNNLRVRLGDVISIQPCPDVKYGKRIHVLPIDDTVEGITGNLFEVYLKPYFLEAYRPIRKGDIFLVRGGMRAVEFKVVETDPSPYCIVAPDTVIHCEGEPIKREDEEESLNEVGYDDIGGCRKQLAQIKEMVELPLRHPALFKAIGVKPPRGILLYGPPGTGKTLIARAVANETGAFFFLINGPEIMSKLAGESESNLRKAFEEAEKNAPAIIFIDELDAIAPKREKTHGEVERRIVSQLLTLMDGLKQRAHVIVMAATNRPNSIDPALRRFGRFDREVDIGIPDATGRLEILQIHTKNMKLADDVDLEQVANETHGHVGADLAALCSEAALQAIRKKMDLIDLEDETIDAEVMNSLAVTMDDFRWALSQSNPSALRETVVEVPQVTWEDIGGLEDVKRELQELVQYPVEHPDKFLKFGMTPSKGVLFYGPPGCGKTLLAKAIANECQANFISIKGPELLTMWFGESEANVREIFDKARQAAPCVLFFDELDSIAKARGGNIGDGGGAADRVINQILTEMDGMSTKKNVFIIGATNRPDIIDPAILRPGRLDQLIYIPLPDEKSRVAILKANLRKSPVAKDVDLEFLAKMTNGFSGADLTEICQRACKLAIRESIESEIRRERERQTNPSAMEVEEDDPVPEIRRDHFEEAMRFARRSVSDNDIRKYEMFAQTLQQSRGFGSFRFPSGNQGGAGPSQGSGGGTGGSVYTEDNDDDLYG
ASSAY_NOTES: P97 ATPase biochem assay (ADP Glo)
Format: biochemical
RECORDED_CONDITIONS: read-out: p97 IC50
Listed next: entries and their corresponding IC50.

Please review the following examples before continuing.
COMPOUND: COCCOc1cccc2c(NCc3ccccc3)nc(-n3c(C)cc4c(C#N)cccc43)nc12
TARGET_ENTITY: p97 (Homo sapiens (Human), UniProt P55072)
ASSAY_METRIC: IC50
OBSERVED: < 30 nM
//
COMPOUND: CCOc1cc2ccccc2n1-c1nc2c(c(NCc3ccccc3)n1)CCCC2
TARGET_ENTITY: p97 (Homo sapiens (Human), UniProt P55072)
ASSAY_METRIC: IC50
OBSERVED: < 100 nM
//
COMPOUND: COC(=O)NCc1cc2ccccc2n1-c1nc2c(c(NCc3ccccc3)n1)CCCC2
TARGET_ENTITY: p97 (Homo sapiens (Human), UniProt P55072)
ASSAY_METRIC: IC50
OBSERVED: < 300 nM
//
COMPOUND: COCCOc1cccc2c(NCc3ccccc3)nc(-n3c(CNC(N)=O)cc4ccccc43)nc12
TARGET_ENTITY: p97 (Homo sapiens (Human), UniProt P55072)
ASSAY_METRIC: IC50
OBSERVED: < 100 nM

Next compound, please.
Lookup: Which IC50 value is on record for Clc1cc2ccccc2n1-c1nc2c(c(NCc3ccccc3)n1)CNCC2 ?
Found: < 300 nM

---

TARGET_ENTITY: p97 (Homo sapiens (Human), UniProt P55072)
ASSAY_NOTES: P97 ATPase biochem assay (ADP Glo)
Type: biochemical
RECORDED_CONDITIONS: read-out: p97 IC50
ASSAY_METRIC: IC50

Recorded IC50, per entry:
COMPOUND: CCN1CCc2nc(-n3c(C)cc4c(C#N)cccc43)nc(NCc3ccccc3)c2C1
OBSERVED: < 100 nM
//
COMPOUND: COCCOc1cccc2c(NCc3ccccc3)nc(-n3c(CO)cc4ccccc43)nc12
OBSERVED: < 100 nM

Lookup: Could you share which IC50 value was measured for COc1cccc2c(NCc3ccccc3)nc(-n3c(C(C)N)cc4ccccc43)nc12 (centres unmarked) ?
Found: < 300 nM

Lookup: If you can, please state the reported IC50 value of CC(=O)NCc1cc2ccccc2n1-c1nc2c(c(NCc3ccccc3)n1)CCCC2 .
Found: < 100 nM

Lookup: For the compound shown here, NC(=O)NCc1cc2ccccc2n1-c1nc2c(c(NCc3ccccc3)n1)CCCC2 , give the reported IC50.
Found: < 100 nM
